// values below are reported Retention_time
Experiment: Retention time of the compound by LC-MS method
Assay type: physicochemical
Write the number in min without appending the unit.

Here's what some known entries look like.
molecule | recordedResult
Cc1cn([C@H]2CCCN(Cc3ccc(C(=O)O)c(Oc4cccc(Cl)c4)c3F)C2)c(=O)[nH]c1=O | 1.89
Cc1cn([C@H]2CCCN(C(CC(C)C)c3ccc(C#N)c(Oc4cccc(Cl)c4)c3F)C2)c(=O)[nH]c1=O (some centres undefined) | 2.62

Req: What does the data say about its Retention_time? Entry: Cc1cn([C@H]2CCCN(C(CC(C)C)c3ccc(Br)c(F)c3F)C2)c(=O)[nH]c1=O (some centres undefined)
Resp: 3.1

Req: Ok, now `O=Cc1cccc(Oc2cccc(Cl)c2)c1F`
Resp: 2.88

Req: Ok, now `Cc1cn([C@H]2CCCN(Cc3cccc(Oc4cc(F)cc(Cl)c4)c3Br)C2)c(=O)[nH]c1=O`
Resp: 2.34

Req: Ok, now `COc1c(C=O)ccc(Br)c1Oc1cccc(Cl)c1`
Resp: 3.28

Req: Ok, now `Cc1cn([C@H]2CCCN(Cc3cccc(Oc4cc(F)cc(Cl)c4)c3Cl)C2)c(=O)[nH]c1=O`
Resp: 2.31

Req: Ok, now `CCC[C@H](c1ccc(C(=O)O)c(Oc2cccc(Cl)c2)c1F)N1CCC[C@H](n2cc(C)c(=O)[nH]c2=O)C1`
Resp: 1.84

Req: Ok, now CCC(c1ccc(C(=O)O)c(Oc2cccc(Cl)c2)c1OC)N1CCC[C@H](n2cc(C)c(=O)[nH]c2=O)C1 (some centres undefined)
Resp: 2.29

Where do these numbers come from? They come from ChEMBL document CHEMBL3297666.
